# assayedTarget: Nur77 (Homo sapiens, UniProt P22736)
# Construct: expressed in transfected cells; host or cells: HEK293T
# Sequence (P22736 360-595 limits assumed): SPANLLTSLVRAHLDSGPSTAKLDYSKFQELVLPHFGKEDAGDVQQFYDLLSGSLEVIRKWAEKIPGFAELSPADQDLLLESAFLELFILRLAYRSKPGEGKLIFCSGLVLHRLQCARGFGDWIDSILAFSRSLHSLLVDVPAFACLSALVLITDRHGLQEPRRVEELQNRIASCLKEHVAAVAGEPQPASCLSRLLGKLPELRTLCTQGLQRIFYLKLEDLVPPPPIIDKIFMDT
# assayText: Gal4-Nur77 hybrid reporter gene assay
# Format: cell-based
propertyMeasured: EC50 (nM)
Number in nM, nothing else.

# input molecule: COc1cccc(-c2ccc(NC(=O)C3=C(c4nn[nH]n4)CCC3)c(F)c2)c1 [compound 32] ; wanted: its EC50 160

###

# assayedTarget: Nurr1 (Homo sapiens, UniProt P43354)
# Construct: expressed in transfected cells; host or cells: HEK293T
# Sequence (P43354 360-595 limits assumed): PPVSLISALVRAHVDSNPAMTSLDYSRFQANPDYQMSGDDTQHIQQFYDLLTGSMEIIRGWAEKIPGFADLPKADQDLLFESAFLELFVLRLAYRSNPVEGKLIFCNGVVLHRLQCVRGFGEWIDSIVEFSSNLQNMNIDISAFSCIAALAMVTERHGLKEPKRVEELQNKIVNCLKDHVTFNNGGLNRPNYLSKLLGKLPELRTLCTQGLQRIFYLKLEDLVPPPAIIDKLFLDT
# assayText: Gal4-Nurr1 hybrid reporter gene assay
# Type: cell-based
# experimentalConditions: supplementary csv; max. activation in %
Lab note: compare efficacy_NR4A2 against 200%. Equal or greater, write yes. Smaller, write no.

Here's what some known entries look like.
{"compound": "[2H]C([2H])([2H])Oc1cccc(-c2c(F)c(F)c(NC(=O)c3cscc3-c3n[nH]c(=S)o3)c(F)c2F)c1", "assignedClass": "no"}
{"compound": "COc1cccc(-c2ccc(NC(=O)C3=C(c4nn[nH]n4)CCC3)c(F)c2)c1", "assignedClass": "yes"}
{"compound": "[2H]C([2H])([2H])Oc1cccc(-c2c(F)c(F)c(NC(=O)c3cscc3-c3noc(=S)[nH]3)c(F)c2F)c1", "assignedClass": "no"}
{"compound": "[2H]C([2H])([2H])Oc1cccc(-c2c(F)c(F)c(NC(=O)c3cscc3-c3n[nH]c(=O)o3)c(F)c2F)c1", "assignedClass": "no"}
{"compound": "[2H]C([2H])([2H])Oc1cccc(-c2c(F)c(F)c(NC(=O)c3cscc3C3=NOS(=O)N3)c(F)c2F)c1 (centres unmarked)", "assignedClass": "yes"}

Does efficacy_NR4A2 meet or surpass 200% for `[2H]C([2H])([2H])Oc1cccc(-c2c(F)c(F)c(NC(=O)c3cscc3-c3nc(=S)on3C)c(F)c2F)c1` ? yes

Determine whether this compound has efficacy_NR4A2 no lower than 200%: `[2H]C([2H])([2H])Oc1cccc(-c2c(F)c(F)c(NC(=O)c3ccsc3S(N)(=O)=O)c(F)c2F)c1` yes

###

# assayedTarget: DHODH (Homo sapiens, UniProt Q02127)
# Construct: using an N-terminally truncated recombinant DHODH enzyme as described previously[20]
# Sequence (Q02127 31-395): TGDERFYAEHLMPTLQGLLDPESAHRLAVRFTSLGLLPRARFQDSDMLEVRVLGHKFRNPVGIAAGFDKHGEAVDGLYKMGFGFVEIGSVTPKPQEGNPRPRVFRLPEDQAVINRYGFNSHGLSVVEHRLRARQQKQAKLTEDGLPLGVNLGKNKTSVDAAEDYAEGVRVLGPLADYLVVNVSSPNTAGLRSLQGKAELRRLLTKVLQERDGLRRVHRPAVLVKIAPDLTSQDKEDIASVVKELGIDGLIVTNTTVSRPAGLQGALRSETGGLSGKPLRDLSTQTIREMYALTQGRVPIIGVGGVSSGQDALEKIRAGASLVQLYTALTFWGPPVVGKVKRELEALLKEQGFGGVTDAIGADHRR
# assayText: DHODH inhibition colorimetric assay on recombinant human protein
# Assay type: biochemical
# experimentalConditions: supplementary csv; read-out: IC50_DHODH
propertyMeasured: IC50 (µM)
Write down the numeric answer in µM and omit the unit.

Item `[2H]C([2H])([2H])Oc1cccc(-c2c(F)c(F)c(NC(=O)c3ccsc3S(N)(=O)=O)c(F)c2F)c1` has what recorded IC50? 3.3

###

# assayedTarget: Nurr1 (Homo sapiens, UniProt P43354)
# Construct: expressed in transfected cells; host or cells: HEK293T
# assayText: Gal4-Nurr1 hybrid reporter gene assay
# Type: cell-based
# experimentalConditions: Gal4-Nurr1 hybrid reporter gene assay; fold activation vs untreated control
max. activation (Nurr1) for assorted compounds
Give the value, in units of fold, as a plain number.

Worked examples follow.
{"compound": "[2H]C([2H])([2H])Oc1cccc(-c2c(F)c(F)c(NC(=O)c3cscc3-c3noc(=O)[nH]3)c(F)c2F)c1 [compound 21]", "assayedTarget": "Nurr1 (Homo sapiens, UniProt P43354)", "unitOfMeasurement": "fold", "max. activation (Nurr1)": 2.2}
{"compound": "[2H]C([2H])([2H])Oc1cccc(-c2c(F)c(F)c(NC(=O)c3ccsc3S(C)(=O)=O)c(F)c2F)c1 [compound 15]", "assayedTarget": "Nurr1 (Homo sapiens, UniProt P43354)", "unitOfMeasurement": "fold", "max. activation (Nurr1)": 2.05}
{"compound": "[2H]C([2H])([2H])Oc1cccc(-c2c(F)c(F)c(NC(=O)c3ccccc3-c3nn[nH]n3)c(F)c2F)c1 [compound 31]", "assayedTarget": "Nurr1 (Homo sapiens, UniProt P43354)", "unitOfMeasurement": "fold", "max. activation (Nurr1)": 1.9}

Consider the additional compound presented here.
Name the reported max. activation (Nurr1) value associated with the compound [2H]C([2H])([2H])Oc1cccc(-c2c(F)c(F)c(NC(=O)C3=C(C(=O)O)COC3)c(F)c2F)c1 [compound 29] 2.5

Every entry's value here was drawn from paper PMC7617969.
